Reference source: ChEMBL document CHEMBL1157722

targetDesc: DNA (cytosine-5)-methyltransferase 3B (Homo sapiens, UniProt Q9UBC3)
measurementNotes: Inhibition of human recombinant DNMT3B expressed in baculovirus-insect cell system by scintillation counting
recordedConditions: read-out: IC50
propertyMeasured: pIC50
One number for each entry, as −log10 of the molar value.

Per the record, Nc1ncnc2c1ncn2[C@@H]1O[C@H](CSCC[C@H](N)C(=O)O)[C@@H](O)[C@H]1O [S-ADENOSYLHOMOCYSTEINE] has pIC50 of 6.60

---

targetDesc: DNA (cytosine-5)-methyltransferase 1 (Homo sapiens, UniProt P26358)
Sequence (P26358 whole entry): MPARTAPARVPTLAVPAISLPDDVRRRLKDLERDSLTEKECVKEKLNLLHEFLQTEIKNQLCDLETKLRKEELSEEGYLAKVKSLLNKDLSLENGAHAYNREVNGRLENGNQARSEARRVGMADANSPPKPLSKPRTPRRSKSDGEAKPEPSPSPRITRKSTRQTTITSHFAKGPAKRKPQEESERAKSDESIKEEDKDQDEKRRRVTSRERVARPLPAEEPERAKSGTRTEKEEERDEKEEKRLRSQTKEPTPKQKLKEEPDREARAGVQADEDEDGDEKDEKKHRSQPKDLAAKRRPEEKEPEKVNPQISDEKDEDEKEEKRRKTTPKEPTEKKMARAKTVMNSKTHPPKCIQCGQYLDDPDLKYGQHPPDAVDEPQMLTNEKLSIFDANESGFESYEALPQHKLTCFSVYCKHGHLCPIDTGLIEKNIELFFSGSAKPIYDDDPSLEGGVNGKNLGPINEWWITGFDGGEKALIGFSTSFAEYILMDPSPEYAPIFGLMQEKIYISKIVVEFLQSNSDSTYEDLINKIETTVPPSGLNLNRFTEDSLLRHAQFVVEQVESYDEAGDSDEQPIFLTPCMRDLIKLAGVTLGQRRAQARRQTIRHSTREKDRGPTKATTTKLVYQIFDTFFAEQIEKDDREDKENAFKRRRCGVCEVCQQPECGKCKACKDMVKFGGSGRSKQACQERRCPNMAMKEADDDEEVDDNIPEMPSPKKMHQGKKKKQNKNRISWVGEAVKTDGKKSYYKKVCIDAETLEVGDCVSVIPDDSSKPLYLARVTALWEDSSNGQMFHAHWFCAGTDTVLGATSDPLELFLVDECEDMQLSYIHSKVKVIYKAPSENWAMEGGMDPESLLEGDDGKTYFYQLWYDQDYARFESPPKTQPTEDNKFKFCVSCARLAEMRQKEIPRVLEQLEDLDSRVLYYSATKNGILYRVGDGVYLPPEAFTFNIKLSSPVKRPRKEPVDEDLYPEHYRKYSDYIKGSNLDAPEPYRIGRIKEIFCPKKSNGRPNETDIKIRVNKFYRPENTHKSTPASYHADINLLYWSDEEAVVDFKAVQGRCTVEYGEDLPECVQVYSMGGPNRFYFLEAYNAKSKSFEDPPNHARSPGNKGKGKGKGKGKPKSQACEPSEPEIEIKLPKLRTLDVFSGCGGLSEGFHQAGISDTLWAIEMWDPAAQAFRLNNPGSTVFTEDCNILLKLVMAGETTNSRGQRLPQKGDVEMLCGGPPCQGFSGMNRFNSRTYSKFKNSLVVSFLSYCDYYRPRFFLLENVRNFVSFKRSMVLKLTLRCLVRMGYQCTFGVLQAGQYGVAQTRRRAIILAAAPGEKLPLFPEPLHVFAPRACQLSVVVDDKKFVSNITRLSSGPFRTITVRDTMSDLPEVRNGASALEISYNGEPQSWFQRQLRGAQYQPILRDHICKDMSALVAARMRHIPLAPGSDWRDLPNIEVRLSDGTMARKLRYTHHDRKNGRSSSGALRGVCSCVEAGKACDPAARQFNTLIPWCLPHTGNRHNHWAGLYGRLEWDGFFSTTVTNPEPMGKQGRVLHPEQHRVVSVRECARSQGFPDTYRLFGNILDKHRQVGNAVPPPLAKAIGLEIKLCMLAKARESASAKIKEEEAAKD
measurementNotes: Inhibition of human recombinant DNMT1 expressed in baculovirus-insect cell system by scintillation counting
recordedConditions: read-out: IC50
propertyMeasured: IC50 (µM)
Answers are plain numbers, in µM.

Lookup result for O=C(O)COc1ccc(C(=O)c2cc(Br)ccc2OCC(=O)O)cc1 ; measured IC50: 212
